These data points were gathered from patent EP0029617A1.

Test system: Kornkäfer (sitophilus granarius L)
Experiment: whole plant or invertebrate
Assay type: in vivo
Conditions: amine 1 mg/ml + Ripcord 0,01 mg/ml
Description: Test von tertiären, heterocyclischen Aminen allein und im Gemisch mit Pyrethroiden an Kornkäfern (sitophilus granarius L) In Petrischalen mit 15 cm Durchmesser mit talcumbepuderten Seitenwänden, um das Entfliehen der Kornkäfer zu verhindern, wurden jeweils 2 ml der Acetonlösungen einpipettiert und durch vorsichtiges Schwenken der Schalen gleichmäßig auf dem Boden verteilt. Nach dem Abdampfen des Acetons und dem Antrocknen der Beläge wurden in jede Schale 25 Kornkäfer eingezählt. […]

- COMPOUND: "CC(C)=CCCC(C)=CCCC(C)=CCN1CCCCC1 [N-Farnesyl-piperidin]"
  Synergistischer Faktor bei Ripcord: "2,67"
- COMPOUND: "Clc1ccc(CN2CCCCC2)cc1 [N-4-Chlor-benzyl-piperidin]"
  Synergistischer Faktor bei Ripcord: "2,37"
- COMPOUND: "CCCCC(CC)CN1CCCC1 (stereo not drawn) [N-1-(2-Ethyl)-hexyl-pyrrolidin]"
  Synergistischer Faktor bei Ripcord: "1,78"
- COMPOUND: "c1ccc(OCCCN2CCCCC2)cc1 [N-(1-Phenoxi-propyl-(3))-piperidin]"
  Synergistischer Faktor bei Ripcord: "2,96"
- COMPOUND: "CCCCCN1CCCC1 [N-1-Pentyl-pyrrolidin]"
  Synergistischer Faktor bei Ripcord: "2,37"
- COMPOUND: "c1ccc(OCCCN2CCCCCC2)cc1 [N-3-Phenoxi-propyl-(1)-hexamethylenimin]"
  Synergistischer Faktor bei Ripcord: "2,03"
- COMPOUND: "c1cc2c(cc1CN1CCCCCC1)OCO2 [N-Piperonyl-hexamethylenimin]"
  Synergistischer Faktor bei Ripcord: "3,05"
- COMPOUND: "c1ccc(OCCN2CCCCC2)cc1 [N-2-Phenoxi-ethyl-(1)-piperidin]"
  Synergistischer Faktor bei Ripcord: "2,54"
- COMPOUND: "CCOC(=O)CC(C(=O)OCC)N1CCCCC1 (stereo not drawn)"
  Synergistischer Faktor bei Ripcord: "3,08"
- COMPOUND: "COc1cc(C=O)cc(CN2CCCCC2)c1O"
  Synergistischer Faktor bei Ripcord: "2,79"
- COMPOUND: "OCCN1CCCC1 [2-N-Pyrrolidino-ethanol]"
  Synergistischer Faktor bei Ripcord: "2,58"
- COMPOUND: "Clc1ccc(CN2CCCC2)cc1 [N-4-Chlor-benzyl-pyrrolidin]"
  Synergistischer Faktor bei Ripcord: "3,17"
- COMPOUND: "CCCCCCCCCCN1CCOCC1 [N-1-Decyl-morpholin]"
  Synergistischer Faktor bei Ripcord: "2,32"
- COMPOUND: "CCOCCN1CCCCC1 [N-1-Ethoxi-ethyl-(2)-piperidin]"
  Synergistischer Faktor bei Ripcord: "1,78"
- COMPOUND: "c1ccc(C(c2ccccc2)N2CCOCC2)cc1 [N-Diphenyl-methyl-morpholin]"
  Synergistischer Faktor bei Ripcord: "2,29"
- COMPOUND: "OCCC(O)N1CCCC1 (stereo not drawn) [1-N-Pyrrolidino-propandiol-(1,3)]"
  Synergistischer Faktor bei Ripcord: "3,17"
- COMPOUND: "OCCN1CCOCC1 [N-Ethanol-morpholin]"
  Synergistischer Faktor bei Ripcord: "2,12"
- COMPOUND: "C(CCCCN1CCOCC1)CCCN1CCOCC1 [1,8-N,N-Dimorpholino-octan]"
  Synergistischer Faktor bei Ripcord: "1,56"
- COMPOUND: "CCCCCCCCCN1CCCCCC1 [N-1-Nonyl-hexamethylenimin]"
  Synergistischer Faktor bei Ripcord: "1,82"
- COMPOUND: "CCCCCN1CCOCC1 [N-1-Pentyl-morpholin]"
  Synergistischer Faktor bei Ripcord: "2,79"
- COMPOUND: "c1ccc(OCCN2CCCCCC2)cc1 [N-2-Phenoxi-ethyl-(1)-hexa-methylenimin]"
  Synergistischer Faktor bei Ripcord: "2,70"
- COMPOUND: "CCCCCCCCCCCCCN1CCCC1 [N-1-Tridecyl-pyrrolidin]"
  Synergistischer Faktor bei Ripcord: "1,78"
- COMPOUND: "C(CCCCN1CCCC1)CCCN1CCCC1 [1,8-N,N-Di-pyrrolidino-octan]"
  Synergistischer Faktor bei Ripcord: "2,79"
- COMPOUND: "CCCCCCCCCCCCCCN1CCCC1 [N-1-Tetradecyl-pyrrolidin]"
  Synergistischer Faktor bei Ripcord: "1,59"
- COMPOUND: "CCCCCCCCCCN1CCCCCC1 [N-Decyl-hexamethylenimin]"
  Synergistischer Faktor bei Ripcord: "1,35"
- COMPOUND: "C(CCCN1CCCCC1)CCN1CCCCC1 [1,6-N,N-Di-piperidino-hexan]"
  Synergistischer Faktor bei Ripcord: "2,82"
- COMPOUND: "CC(C)=CCCC(C)CCN1CCCCC1 (stereo not drawn) [N-Citronellyl-piperidin]"
  Synergistischer Faktor bei Ripcord: "2,46"
- COMPOUND: "C(=Cc1ccccc1)CN1CCOCC1 [N-Cinnamyl-morpholin]"
  Synergistischer Faktor bei Ripcord: "1,74"
- COMPOUND: "C=CC(C)(CCC=C(C)C)N1CCCCCC1 (stereo not drawn)"
  Synergistischer Faktor bei Ripcord: "2,41"
- COMPOUND: "C1CCCC(N2CCOCC2)CC1 [N-Cycloheptyl-morpholin]"
  Synergistischer Faktor bei Ripcord: "1,78"
- COMPOUND: "CCCCOCCOCCOCCN1CCCC1"
  Synergistischer Faktor bei Ripcord: "3,05"
- COMPOUND: "c1cc2c(cc1CN1CCOCC1)OCO2 [N-Piperonyl-morpholin]"
  Synergistischer Faktor bei Ripcord: "2,32"
- COMPOUND: "CCC1CCCCN1Cc1ccccc1 (stereo not drawn) [N-Benzyl-2-ethyl-piperidin]"
  Synergistischer Faktor bei Ripcord: "2,50"
- COMPOUND: "CCOCCN1CCCC1 [N-1-(1'-Ethoxiethyl-(2))-pyrrolidin]"
  Synergistischer Faktor bei Ripcord: "2,22"
- COMPOUND: "CC(C)=CCC/C(C)=C\\CN1CCCCC1"
  Synergistischer Faktor bei Ripcord: "2,16"
- COMPOUND: "CCC/C=C(\\CC)CN1CCCC1 [cis-3-N-pyrrolidino-methyl-hepten-(3)]"
  Synergistischer Faktor bei Ripcord: "1,61"
- COMPOUND: "O=C1CCCCC1CN1CCCCC1 (stereo not drawn) [2-N-Piperidino-methyl-cyclo-hexanon]"
  Synergistischer Faktor bei Ripcord: "1,65"
- COMPOUND: "C(=Cc1ccccc1)CN1CCCCC1 [N-Cinnamyl-piperidin]"
  Synergistischer Faktor bei Ripcord: "3,08"
- COMPOUND: "CCCCCCCCCC(C)N1CCCC1 (stereo not drawn) [N-2-Undecyl-pyrrolidin]"
  Synergistischer Faktor bei Ripcord: "1,36"
- COMPOUND: "CCC(CC)N1CCCC1 [Pentyl-(3)-N-pyrrolidin]"
  Synergistischer Faktor bei Ripcord: "2,67"
- COMPOUND: "CCCCCCCCCCCCN1CC1 [N-1-Dodecyl-ethylenimin]"
  Synergistischer Faktor bei Ripcord: "2,86"
- COMPOUND: "C(CCCCCN1CCCC1)CCCCN1CCCC1 [1,10-N,N-Di-pyrrolidino-decan]"
  Synergistischer Faktor bei Ripcord: "2,54"
